src = ChEMBL document CHEMBL1201862

- Tested on: SR
- PROTOCOL: NCI tumour cell line growth inhibition, 48 h
The source made the active and inactive calls. Rule as the data show it: active = GI50 up to about 1.1 µM and inactive = higher.
Possible outcomes: active, inactive

[[record]]
compound = "COc1ccc(OC)c(/C=C/NC=O)c1"
tgt = "SR"
assigned_category = "inactive"

[[record]]
compound = "COC(=O)CSc1nnc(-c2ccccc2)[nH]1"
tgt = "SR"
assigned_category = "inactive"

[[record]]
compound = "CC(=O)OCC(=O)[C@@]1(O)CC[C@H]2[C@@H]3C[C@H](C)C4=CC(=O)C=C[C@]4(C)[C@@]3(F)[C@@H](O)C[C@@]21C"
tgt = "SR"
assigned_category = "inactive"

[[record]]
compound = "COc1cccc(/C=C2\\C(=O)N(C(=O)Cc3ccccc3)N=C2C)c1"
tgt = "SR"
assigned_category = "inactive"

[[record]]
compound = "CN(C)CC1CCCC1=O (configuration not stated)"
tgt = "SR"
assigned_category = "active"

[[record]]
compound = "COC(=O)Cc1c([C@H]2[C@H](CC(=O)OC)c3ccccc3N2C(=O)C(F)(F)F)[nH]c2ccccc12"
tgt = "SR"
assigned_category = "inactive"

[[record]]
compound = "COc1cc(C)cc(C(=O)/C=C/c2ccccc2)c1O"
tgt = "SR"
assigned_category = "inactive"

[[record]]
compound = "COC(=O)/C(=C/c1ccc(OC)cc1)C(C(=O)O)=C(C)C"
tgt = "SR"
assigned_category = "inactive"

[[record]]
compound = "CC1OC(OCC2OC(Oc3c(-c4ccc(O)cc4)oc4cc(O)cc(O)c4c3=O)C(OC3OCC(O)(CO)C3O)C(O)C2O)C(O)C(O)C1O (configuration not stated)"
tgt = "SR"
assigned_category = "inactive"

[[record]]
compound = "CCOC(=O)/C(=C/c1ccc[nH]1)P(=O)(OCC)OCC"
tgt = "SR"
assigned_category = "inactive"

[[record]]
compound = "COc1cc(/C=C(\\NC(=O)c2ccccc2)c2nc3cncnc3[nH]2)cc(OC)c1OC"
tgt = "SR"
assigned_category = "inactive"

[[record]]
compound = "C[C@H](CCC1SC1(C)C)C1CCC2(C)C3=C(CC[C@]12C)[C@@]1(C)CC[C@H](O)C(C)(C)C1CC3 (some centres not stated)"
tgt = "SR"
assigned_category = "inactive"

[[record]]
compound = "c1ccc2c(c1)nnn2CNc1ccc(N2CCOCC2)cc1"
tgt = "SR"
assigned_category = "inactive"

[[record]]
compound = "Cc1cc(-c2nc3ccccc3s2)ccc1NC(=O)[C@@H](N)CCCCN"
tgt = "SR"
assigned_category = "inactive"

[[record]]
compound = "N#Cc1sc2c(c1OC(=O)c1ccc(Cl)cc1)c(=O)n(-c1ccccc1)c(=S)n2-c1ccccc1"
tgt = "SR"
assigned_category = "inactive"

[[record]]
compound = "C=CC(=O)C#CC#CC/C=C\\CCCCCCC"
tgt = "SR"
assigned_category = "inactive"

[[record]]
compound = "CCCOC1OC(CS(=O)(=O)O)C(O)C(O)C1O (configuration not stated)"
tgt = "SR"
assigned_category = "inactive"

